Molecular target: ΔF508-CFTR (Homo sapiens, UniProt P13569, DEL508-508)
Construct: expressed in transfected cells; co-expressing YFP-H148Q/I152L in the fluorescence assay
Sequence (P13569 with tags, fused parts or gaps DEL508-508): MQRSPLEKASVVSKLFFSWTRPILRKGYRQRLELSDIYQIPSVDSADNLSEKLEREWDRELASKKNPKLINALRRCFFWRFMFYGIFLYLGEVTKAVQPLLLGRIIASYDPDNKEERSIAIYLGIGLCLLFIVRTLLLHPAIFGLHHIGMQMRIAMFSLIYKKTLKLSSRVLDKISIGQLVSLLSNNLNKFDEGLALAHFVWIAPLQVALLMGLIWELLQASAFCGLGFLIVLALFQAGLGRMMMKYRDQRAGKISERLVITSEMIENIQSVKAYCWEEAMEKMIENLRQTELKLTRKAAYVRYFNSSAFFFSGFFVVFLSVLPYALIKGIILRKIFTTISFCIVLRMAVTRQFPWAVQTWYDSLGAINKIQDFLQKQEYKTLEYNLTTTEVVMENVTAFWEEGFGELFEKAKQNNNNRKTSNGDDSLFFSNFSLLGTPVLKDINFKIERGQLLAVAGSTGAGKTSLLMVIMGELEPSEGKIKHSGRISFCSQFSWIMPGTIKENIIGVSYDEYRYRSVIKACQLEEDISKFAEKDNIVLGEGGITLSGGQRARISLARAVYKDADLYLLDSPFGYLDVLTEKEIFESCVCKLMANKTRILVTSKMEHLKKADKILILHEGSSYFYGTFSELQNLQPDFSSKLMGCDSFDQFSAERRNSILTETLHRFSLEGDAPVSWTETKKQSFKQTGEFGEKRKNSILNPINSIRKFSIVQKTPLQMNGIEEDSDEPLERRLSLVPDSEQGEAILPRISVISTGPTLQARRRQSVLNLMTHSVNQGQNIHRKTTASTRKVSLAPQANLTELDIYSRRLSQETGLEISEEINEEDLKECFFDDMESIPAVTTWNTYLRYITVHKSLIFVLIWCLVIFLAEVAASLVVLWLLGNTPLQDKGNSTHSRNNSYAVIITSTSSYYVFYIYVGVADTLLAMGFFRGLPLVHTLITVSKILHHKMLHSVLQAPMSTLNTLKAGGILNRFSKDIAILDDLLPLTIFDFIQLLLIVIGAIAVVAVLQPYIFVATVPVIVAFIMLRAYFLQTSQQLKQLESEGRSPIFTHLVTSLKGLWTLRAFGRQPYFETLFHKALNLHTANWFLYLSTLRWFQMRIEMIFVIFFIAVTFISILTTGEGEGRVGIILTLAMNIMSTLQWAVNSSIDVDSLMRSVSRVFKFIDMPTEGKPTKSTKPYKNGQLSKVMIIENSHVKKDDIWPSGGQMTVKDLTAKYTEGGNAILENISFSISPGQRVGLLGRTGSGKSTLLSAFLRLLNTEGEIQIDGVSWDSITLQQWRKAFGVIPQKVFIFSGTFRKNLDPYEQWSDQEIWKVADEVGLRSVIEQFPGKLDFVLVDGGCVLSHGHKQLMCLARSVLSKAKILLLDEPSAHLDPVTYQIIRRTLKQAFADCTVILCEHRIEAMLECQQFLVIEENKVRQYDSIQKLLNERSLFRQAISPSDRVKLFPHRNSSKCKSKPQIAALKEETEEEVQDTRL
Assay: YFP halide-sensor iodide influx assay in FRT cells coexpressing ΔF508-CFTR
Assay type: cell-based
Conditions: iodide influx dose-response, FRT cells incubated with corrector at 37° C., forskolin + genistein; read-out: Ka
Kindly state pEC50 for each of the entries shown.
Scale: negative log10 of molar concentration, which is what pEC50 denotes.

Fill in the blank: the reported pEC50 of Cc1cc(C)c2c(C)cc(Nc3ccccc3)nc2c1 [corr-5a] is ____.
4.89

Fill in the blank: the reported pEC50 of CC(C)(C)C1CCC2(CC1)NC(=S)N(c1nc3ccccc3s1)N2 (stereo not shown) [corr-1c] is ____.
5.60

Fill in the blank: the reported pEC50 of COc1ccc(C)cc1Nc1cc(C)c2ccccc2n1 [corr-5d] is ____.
4.89

Fill in the blank: the reported pEC50 of COc1ccc2nc(Nc3nc(=O)c(C)c(C)[nH]3)nc(C)c2c1 [corr-3d] is ____.
4.82

Fill in the blank: the reported pEC50 of Cc1cc(Nc2ccc(Br)cc2)nc2ccccc12 [corr-5c] is ____.
5.10

Fill in the blank: the reported pEC50 of COOc1ccc(/C(C)=N\Nc2nc3ccccc3s2)cc1 [corr-1b] is ____.
4.78

Fill in the blank: the reported pEC50 of O=C(CSc1nc(-c2ccccc2)c[nH]1)Nc1nc(-c2ccc(Br)cc2)cs1 [corr-2l] is ____.
4.95

Fill in the blank: the reported pEC50 of COc1ccc(-c2csc(Nc3ccc(NC(C)=O)cc3)n2)cc1OC [corr-2g] is ____.
5.09

Fill in the blank: the reported pEC50 of COc1ccc(Cl)cc1Nc1nc(-c2sc(NC(=O)c3ccccc3)nc2C)cs1 [corr-4a] is ____.
5.55

Fill in the blank: the reported pEC50 of CCCC1(CCC)NC(=S)N(C2=NC3C=CC=CC3S2)N1 (stereo not shown) [corr-1a] is ____.
5.13
